Assay: gradient 5% acetonitrile 3 min, to 50% in 2 min, to 85% in 15 min, held 3 min, 100 µL/min
Settings: column: Zorbax Extend-C18 2.1 x 50 mm; eluents: water / acetonitrile, 0.1% formic acid
Recorded Metric: RP-LC retention time (s)

Worked set:
CCOc1cc(=O)n2c(c1C(=O)Nc1ccc(SC)cc1)CCCC2 | 754
O=c1n(Cc2ccccc2)nc2n1CCN(S(=O)(=O)Cc1ccccc1)CC2 | 816
CCc1ccc(N2C[C@@]34C=C[C@@H](O3)[C@H](C(=O)OC)[C@@H]4C2=O)cc1 | 793
Cc1[nH]c(C(=O)N2CCC(CC(=O)NCC3CCCO3)CC2)c(C)c1C(=O)OC(C)C (centres undefined) | 682

P. CC1(C(=O)NCc2ccc(F)cc2)CCCN(C(=O)NC2CCCCC2)C1 (centres undefined)
Q. COc1cccc(CN2CCC3(CC2)NCCc2c3[nH]c3ccc(OC)cc23)c1
RP-LC retention time comparison. Which is larger, P or Q ? Respond with the label that goes with your answer.
P
